target: mTOR (human recombinant aa mTOR 1360-2549) (Homo sapiens (Human), UniProt P42345); assay: mTOR enzymatic test by TR-FRET (phosphorylation of GFP-4EBP1)
Sequence (P42345 1360-2549): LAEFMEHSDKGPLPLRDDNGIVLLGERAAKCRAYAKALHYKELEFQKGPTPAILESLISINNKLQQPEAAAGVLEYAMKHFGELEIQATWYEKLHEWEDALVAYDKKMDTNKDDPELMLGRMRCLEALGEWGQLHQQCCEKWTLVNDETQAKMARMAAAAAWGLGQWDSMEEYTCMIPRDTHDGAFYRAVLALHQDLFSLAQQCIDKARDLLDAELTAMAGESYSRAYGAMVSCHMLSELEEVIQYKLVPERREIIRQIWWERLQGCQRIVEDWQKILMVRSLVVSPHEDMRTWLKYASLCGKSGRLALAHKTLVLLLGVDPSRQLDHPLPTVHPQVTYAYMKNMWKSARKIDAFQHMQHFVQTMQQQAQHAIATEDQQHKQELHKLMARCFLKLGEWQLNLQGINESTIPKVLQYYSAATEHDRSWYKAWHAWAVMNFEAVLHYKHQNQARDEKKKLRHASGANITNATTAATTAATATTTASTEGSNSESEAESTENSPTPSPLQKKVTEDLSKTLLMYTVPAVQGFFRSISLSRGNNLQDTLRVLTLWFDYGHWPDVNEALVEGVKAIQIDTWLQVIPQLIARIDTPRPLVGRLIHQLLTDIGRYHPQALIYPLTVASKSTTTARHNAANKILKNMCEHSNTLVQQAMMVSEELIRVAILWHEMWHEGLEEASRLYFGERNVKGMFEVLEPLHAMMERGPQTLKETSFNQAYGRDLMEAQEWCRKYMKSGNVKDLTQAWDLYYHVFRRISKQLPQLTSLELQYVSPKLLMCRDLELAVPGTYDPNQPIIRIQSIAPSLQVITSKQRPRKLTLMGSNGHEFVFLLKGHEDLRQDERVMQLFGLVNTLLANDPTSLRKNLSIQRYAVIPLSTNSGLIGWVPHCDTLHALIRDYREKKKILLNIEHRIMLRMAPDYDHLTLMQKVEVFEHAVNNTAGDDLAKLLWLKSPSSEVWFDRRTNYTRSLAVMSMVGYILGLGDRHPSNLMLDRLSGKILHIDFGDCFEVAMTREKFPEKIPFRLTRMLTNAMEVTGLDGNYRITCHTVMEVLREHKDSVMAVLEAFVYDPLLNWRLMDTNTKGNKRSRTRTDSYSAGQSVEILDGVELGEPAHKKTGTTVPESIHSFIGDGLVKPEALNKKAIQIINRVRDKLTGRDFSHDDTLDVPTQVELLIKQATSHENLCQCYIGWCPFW
Catalogue of compounds with associated pIC50
pIC50 here is simply -log10 of the concentration when that concentration is written in mol/L.

Prompt line: Quote pIC50 with test system mTOR (human recombinant aa mTOR 1360-2549) (Homo sapiens (Human), UniProt P42345) for CC1(C)CN(C2CCOCC2)C(=O)c2c(nc(N3CC4CCC(C3)O4)nc2-c2ccc(NC(=O)Nc3ccon3)cc2)O1
Response line: 7.57

Prompt line: Quote pIC50 with test system mTOR (human recombinant aa mTOR 1360-2549) (Homo sapiens (Human), UniProt P42345) for CCN1CC(C)(C)Oc2nc(N3CC4CCC(C3)O4)nc(-c3ccc(NC(=O)Nc4ccnc(OC)n4)c(F)c3)c2C1=O
Response line: 6.98

Prompt line: Quote pIC50 with test system mTOR (human recombinant aa mTOR 1360-2549) (Homo sapiens (Human), UniProt P42345) for CCN1CC(C)(C)Oc2nc(N3CC4CCC(C3)O4)nc(-c3ccc(NC(=O)Nc4ccc(C(=O)N5CCC(N(C)C)CC5)cc4)cc3)c2C1=O
Response line: 7.08

Prompt line: Quote pIC50 with test system mTOR (human recombinant aa mTOR 1360-2549) (Homo sapiens (Human), UniProt P42345) for CCN1CC(C)(C)Oc2nc(N3CC4CCC(C3)O4)nc(-c3ccc(NC(=O)Nc4ccnc(C)c4)c(F)c3)c2C1=O
Response line: 7.39

Prompt line: Quote pIC50 with test system mTOR (human recombinant aa mTOR 1360-2549) (Homo sapiens (Human), UniProt P42345) for CCN1CC(C)(C)Oc2nc(N3CCOC[C@@H]3C)nc(-c3ccc(NC(=O)NCC(F)(F)F)c(F)c3)c2C1=O
Response line: 6.95

Prompt line: Quote pIC50 with test system mTOR (human recombinant aa mTOR 1360-2549) (Homo sapiens (Human), UniProt P42345) for Cc1cc(NC(=O)Nc2ccc(-c3nc(N4CC5CCC(C4)O5)nc4c3C(=O)N(C3CCOCC3)CC(C)(C)O4)cc2)no1
Response line: 7.92
